# tgt: T1, human MSLN-R3-his protein (human, UniProt Q13421 487-598)
# T1 construct: it is put last here; also called human MSLN-R3 protein; hMSLN-R3-his; not shown: His tag
# assay text: ELISA on coated antigen, antibody 0.2 nM
reported endpoint: OD450 (OD)
Please give a number only; it is taken to be in OD.

Query: // lookup OD450 for S009-F7.30.5 (antibody, human IgG1, kappa, V domains shown, Human-murine chimeric antibody, human IgG1 heavy and kappa light constant regions) VH: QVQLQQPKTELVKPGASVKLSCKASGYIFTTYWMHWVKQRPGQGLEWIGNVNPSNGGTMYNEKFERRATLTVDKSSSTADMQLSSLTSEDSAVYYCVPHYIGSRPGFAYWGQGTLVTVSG VL: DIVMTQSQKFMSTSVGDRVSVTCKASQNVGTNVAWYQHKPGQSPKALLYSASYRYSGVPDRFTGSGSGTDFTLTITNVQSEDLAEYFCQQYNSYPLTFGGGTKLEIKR
Reply: 2.66
